- Tested on: NEK3
- assay context: concentration: 1 μM,replicates: in singlicate; n = 1;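 also: KINOMEscan kinase panel screen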
Assign %Inh to each entry below.
Give bare numbers, in %.

Examples from the recorded data:
# return recorded %Inh for input `O=C(Nc1ccc(Oc2ccc3nc(NC(=O)C4CC4)cn3n2)c(F)c1)c1cccn(-c2ccccc2)c1=O` 8

# return recorded %Inh for input `OCCn1cc(-c2cnc3nnn(Cc4ccc5ncccc5c4)c3n2)cn1` 32

# return recorded %Inh for input COC(=O)Nc1nc2cc(Oc3ccc(NC(=O)Nc4cc(C(F)(F)F)ccc4Cl)cc3)ccc2[nH]1.Cl [GW697465] 0

Okay, now this compound:
# return recorded %Inh for input COc1cccc(CNC(=O)NC2CCN(c3ccnc(Nc4cc(OC)c(OC)c(OC)c4)n3)C2)c1 (stereo not shown) [GSK1379765] 45

====

- Tested on: EIF2AK1
- assay context: concentration: 1 μM,replicates: in singlicate; n = 1
Assign %Inh to each entry below.
Answers are plain numbers, in %.

Please report %Inh for every entry that follows.
1. OCCn1cc(-c2cnc3nnn(Cc4ccc5ncccc5c4)c3n2)cn1
2. Cc1nnc(-c2ccc3occ(-c4ccc(S(C)=O)cc4)c3n2)o1 (stereo not drawn)
3. CCOC(=O)N1CCC(n2cnc(-c3ccc(F)cc3)c2-c2ccnc(N)n2)CC1
4. C[C@@H](Oc1cc(-n2cnc3cc(-c4cnn(C)c4)ccc32)sc1C(N)=O)c1ccccc1Cl
5. COc1ccc(Nc2nccc(N3CCC(NC(=O)c4cccc(C#N)c4)C3)n2)cc1 (stereo not drawn)
6. CN1CCN(CCNc2nc3cc(Oc4ccc(NC(=O)Nc5cc(C(F)(F)F)ccc5F)cc4)ccc3[nH]2)CC1.Cl.Cl
7. CNC(=O)c1ccccc1Nc1nc(Nc2cccc(CS(C)(=O)=O)c2)ncc1C.O=CO

1. 0
2. 0
3. 19
4. 15
5. 0
6. 0
7. 0

Please report %Inh for every entry that follows.
1. Cl.Nc1n[nH]c2cc(-c3ccccn3)ccc12
2. Cc1cccc(-c2nc(Nc3ccncc3)c3sccc3n2)n1

[0, 17]

Please report %Inh for every entry that follows.
1. Cn1ccc2ncnc(Oc3ccc(NC(=O)Nc4cc(C(C)(C)C)on4)c(Cl)c3)c21
2. CN(c1ccccc1CNc1nc(Nc2ccc3c(c2)CC(=O)N3)ncc1C(F)(F)F)S(C)(=O)=O
3. CC(C)c1nc(-c2cccc(NS(=O)(=O)c3ccccc3)c2)c(-c2ccnc(Nc3ccc4c(c3)CN(C)CC4)n2)s1
4. NC(=O)c1ccc(-c2cc3ncnc(SCC(=O)O)c3s2)cc1

1: 3; 2: 0; 3: 95.1; 4: 0

Please report %Inh for every entry that follows.
1. Cc1ccc2c(-c3ccnc(Nc4ccc(C(F)(F)F)cc4)n3)cnn2n1
2. O=C(Nc1cccc(Oc2ccc3nccn3n2)c1)Nc1cccc(C(F)(F)F)c1
3. CS(=O)c1ccc(-c2coc3ccc(-c4n[nH]c(=O)o4)cc23)cc1 (stereo not drawn)
4. O=C(Nc1ccc(Oc2ccc3nc(NC(=O)C4CC4)cn3n2)c(F)c1)c1cccn(-c2ccccc2)c1=O
5. Cn1ccc2ncnc(Oc3ccc(NC(=O)Nc4cccc(C(F)(F)F)c4)c(F)c3)c21

1. 0
2. 0
3. 3
4. 0
5. 0

====

- System: PIM3
- assay context: concentration: 1 μM,replicates: in singlicate; n = 1
Assign %Inh to each entry below.
Numbers only, in %.

# return recorded %Inh for input `CC(=O)c1c(-c2ccncc2)[nH]c(-c2ccncc2)c1C` 9

# return recorded %Inh for input N#Cc1cccc(C(=O)NC2CCN(c3ccnc(Nc4ccc(F)cc4)n3)C2)c1 (stereo not drawn) 0

Okay, now this compound:
# return recorded %Inh for input `CN(c1ccc2c(c1)nc(NCc1ccc(F)cc1)n2C)c1ccnc(Nc2ccc(CS(C)(=O)=O)cc2)n1.Cl` 15
